Parameter Efficacy GLP-2R: see the listing below.
Target: human GLP-2R (Homo sapiens)
Construct: host or cells: COS-7
Sequence (O95838 1-553): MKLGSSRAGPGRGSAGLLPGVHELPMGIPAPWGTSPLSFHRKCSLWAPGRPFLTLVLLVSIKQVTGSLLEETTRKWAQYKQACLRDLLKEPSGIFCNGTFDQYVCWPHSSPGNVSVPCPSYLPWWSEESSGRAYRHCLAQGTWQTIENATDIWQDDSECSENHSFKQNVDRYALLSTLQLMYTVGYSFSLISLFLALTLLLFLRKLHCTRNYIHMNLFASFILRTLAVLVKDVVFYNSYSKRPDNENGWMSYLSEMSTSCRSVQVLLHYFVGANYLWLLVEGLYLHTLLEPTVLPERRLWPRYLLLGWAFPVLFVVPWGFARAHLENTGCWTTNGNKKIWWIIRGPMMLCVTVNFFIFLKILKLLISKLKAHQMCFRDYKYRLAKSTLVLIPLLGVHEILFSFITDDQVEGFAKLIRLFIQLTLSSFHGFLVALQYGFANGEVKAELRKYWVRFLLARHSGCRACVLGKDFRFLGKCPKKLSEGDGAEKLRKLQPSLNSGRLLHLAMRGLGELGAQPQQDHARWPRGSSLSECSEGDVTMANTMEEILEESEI
Assay: HitHunter cAMP assay in transiently transfected COS-7 cells, human GLP-2R;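 further: cells kept 30 min at 37 °C in buffer with 1 mM IBMX, then given ligand for another 30 min at 37 °C before cAMP readout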
Type: cell-based
Settings: Emax normalized to highest concentration of endogenous ligand; Table 2
Reply briefly: the number, and no unit.

Sample answers from the record:
SUBSTANCE	REPORTED_RESULT
(C16)HADGTFISDYSTILDNLAARDFINWLLAQKITK [Compound no. 46]	82
H-Aib-DGTFISDY-K(γGlu-C10)-T-Aib-LDNLAARDFINWLIQTKITD-OH [Compound no. 30]	81
(C16)HADGTFISDYSTILDNLAARDFINWLIATKITKNDWKHNITQ [Compound no. 52]	68

**Query** Param item = H-Aib-DG-K(γGlu-C16 diacid)-FISDYST-Aib-LDNLAARDFINWLIQTKITK-OH [Compound no. 25] ; retrieve measured Efficacy GLP-2R.
**Result** 88

**Query** Same lookup for Ac-H-Aib-DGTFISDY-K(γGlu-C16)-T-Aib-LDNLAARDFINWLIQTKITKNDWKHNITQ-OH [Compound no. 38] , please.
**Result** 89

**Query** Input (C16-diacid)H-Aib-EGTFISDYST-Aib-LDALAARDFINWLIQTKITKNDWKHNITQ-OH [Compound no. 41]
**Result** 74

----------
Below, each of the substances is paired with its reported rGLP-2R Efficacy (%) value.
Target: rat GLP-2R (Rattus norvegicus)
Construct: expressed in transfected cells; host or cells: COS-7
Sequence (Q9Z0W0 1-550): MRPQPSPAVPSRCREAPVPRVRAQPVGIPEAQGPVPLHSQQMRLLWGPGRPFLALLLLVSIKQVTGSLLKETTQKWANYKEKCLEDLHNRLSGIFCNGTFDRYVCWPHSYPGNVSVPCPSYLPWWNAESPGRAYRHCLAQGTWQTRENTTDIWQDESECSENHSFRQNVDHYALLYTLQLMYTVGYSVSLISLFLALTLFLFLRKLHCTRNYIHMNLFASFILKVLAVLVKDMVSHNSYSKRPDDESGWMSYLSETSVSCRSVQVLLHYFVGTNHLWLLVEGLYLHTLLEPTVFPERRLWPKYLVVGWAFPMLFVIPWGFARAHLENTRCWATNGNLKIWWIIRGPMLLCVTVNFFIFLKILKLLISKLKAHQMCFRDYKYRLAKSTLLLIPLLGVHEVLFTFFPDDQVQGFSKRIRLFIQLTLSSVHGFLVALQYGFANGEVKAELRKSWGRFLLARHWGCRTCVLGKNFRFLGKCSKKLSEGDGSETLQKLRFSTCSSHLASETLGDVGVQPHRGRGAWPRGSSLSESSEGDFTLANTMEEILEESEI
Experiment: HitHunter cAMP assay in transiently transfected COS-7 cells, rat GLP-2R
Format: cell-based
Details: Emax normalized to highest concentration of endogenous ligand
# number only, unit % dropped from output

SUBSTANCE	rGLP-2R Efficacy (%)
H-Aib-DG-K(γGlu-C10)-FISDYST-Aib-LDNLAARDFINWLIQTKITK-OH [Compound no. 24]	76.3
H-Aib-DGTFISDY-K(yglu-C10)-T-Aib-LDNLAARDFINWLIQTKITGNDWKHNITQ-OH [Compound no. 54]	108.0
H-Aib-DGTFISDYSTIL-K(γGlu-C16)-NLAARDFINWLIQTKITK-OH [Compound no. 13]	83.7
H-Aib-DGTFISDYS-K(γGlu-C16)-Aib-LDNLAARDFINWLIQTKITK-OH [Compound no. 35]	87.3

Please turn your attention to the following entry.
**Query** Recorded rGLP-2R Efficacy (%) of H-Aib-DGTFISDY-K(γGlu-C16)-T-Aib-LDALAARDFIEWLIQTKITK-OH [Compound no. 33] , please.
**Result** 96.3

These entries and their values trace back to patent US20250304643A1.
